The entries below come with measured TGI values attached.
system: UO-31 renal; assay: NCI tumour cell line growth inhibition, 48 h

COMPOUND	ASSAY_SYSTEM	TGI
COc1cc2c3c(n(CCCN(C)CCO)c(=O)c2cc1OC)-c1cc2c(cc1C3=O)OCO2	UO-31 renal	> 57.9 µM
Cc1ccc(C)c(N2C(=O)C(=O)C(c3nc4ccccc4o3)/C(=N/N)C2=O)c1 (stereo not drawn)	UO-31 renal	> 100 µM
C=CC1(CC[C@]2(c3ccc(OC)c(OC)c3)C=[N+]([O-])O[C@H](O[C@@H]3CCCC[C@H]3C(C)(C)c3ccccc3)C2)OCC(C)(C)CO1	UO-31 renal	> 48.7 µM
CCOC(=O)c1sc(NC(=O)COc2cccc(/C=C3\CCc4cc(OC)ccc4C3=O)c2)nc1C	UO-31 renal	> 100 µM
NCCCOc1cc2ccccc2cc1C(=O)NCCCOc1cc2ccccc2cc1C(=O)Nc1ccc(Cl)cc1O	UO-31 renal	1.78 µM
Cc1ccc(C)c(N2C(=O)C(=O)C(c3nc4ccccc4o3)/C(=N\NC(=O)c3ccccc3O)C2=O)c1 (stereo not drawn)	UO-31 renal	87.6 µM
CCOC(=O)CCC(NC(=O)c1ccc(NCc2ccc3nc(-c4ccccc4)c(Cl)nc3c2)cc1)C(=O)OCC (stereo not drawn)	UO-31 renal	65.8 µM
COc1cccc(CC(=O)N2CCN(CCCc3ccccc3)CC2)c1	UO-31 renal	> 100 µM

----------
test system: MCF7 breast; assay: NCI tumour cell line growth inhibition, 48 h

MOLECULE	TGI
COc1ccc(/C(Cl)=C(\C#N)c2ccc(OC)c(OC)c2)cc1OC	> 100 µM
COc1ccc2c(c1)C(C)Cc1c(ncnc1-n1cnc3ccccc31)N2C (stereo unspecified)	14 µM
C/C=C\C(CC(=O)NCC(=O)c1c[nH]c2ccccc12)CC(=O)OC (stereo unspecified)	> 100 µM
CC(NC(=O)Cc1ccccc1)NC(=O)C(C)C(=O)NCc1ccccc1 (stereo unspecified)	> 100 µM
Cc1ccc(S(=O)(=O)C2=C(C(C)C)N=NC2(C)C)cc1	> 100 µM
O=[N+]([O-])c1ccc(Sc2c3ccccc3nc3ccccc23)cn1	19.1 µM
CCc1nc(Cl)c(Cl)c(Cl)n1	> 100 µM
CCCCCCc1cc2cc(C(=O)Nc3ccc(F)cc3)c(=N)oc2cc1O	33.7 µM
CC(=O)NC1C(Sc2ncn(C3OC(CO)C(O)C(O)C3NC(C)=O)n2)OC(CO)C(O)C1O (stereo unspecified)	> 100 µM
CCOP(=O)(OCC)/C(C#N)=C/c1ccc(-c2cc(C(F)(F)F)cc(C(F)(F)F)c2)o1	20 µM
COc1cc(/C=C/C(=O)Oc2ccccc2)ccc1C(=O)O/C=C/c1ccccc1	> 100 µM

----------
test system: SK-MEL-5 melanoma; assay: NCI tumour cell line growth inhibition, 48 h
The entries below come with measured TGI values attached.

MOLECULE	ASSAY_SYSTEM	TGI
CC1(C)OP(=O)(O)C=C1Sc1ccc([N+](=O)[O-])cc1[N+](=O)[O-]	SK-MEL-5 melanoma	> 100 µM
C=C1CCCCCCCCC/C=C/1SCCCSC	SK-MEL-5 melanoma	> 100 µM
CN1CCCOC(c2ccc(Cl)cc2)O1 (configuration not stated)	SK-MEL-5 melanoma	> 100 µM
C/C=C\C(CC(=O)NCC(=O)c1c[nH]c2ccccc12)CC(=O)OC (configuration not stated)	SK-MEL-5 melanoma	> 100 µM
CNCCn1c(=O)c2cc(OC)c(OC)cc2c2cnc3cc4c(cc3c21)OCO4	SK-MEL-5 melanoma	0.0254 µM
C(=Nc1ccc2c(c1)Cc1ccccc1-2)c1ccccn1	SK-MEL-5 melanoma	> 100 µM
CC(=O)SC(C[N+](=O)[O-])c1ccc2c(c1)OCO2 (configuration not stated)	SK-MEL-5 melanoma	19.9 µM
C[n+]1c2ccccc2c(NC(CCCN=C(N)N)C(=O)O)c2ccccc21 (configuration not stated)	SK-MEL-5 melanoma	> 100 µM
CN1CCc2c(sc3[nH]c(=S)[nH]c(=S)c23)C1	SK-MEL-5 melanoma	> 100 µM
Cc1ccc2c(c1)CC1(Cc3cccc(C)c3C1=O)C2=O (configuration not stated)	SK-MEL-5 melanoma	> 100 µM
CC1COS(=O)O1 (configuration not stated)	SK-MEL-5 melanoma	> 100 µM
N#Cc1c(-c2ccco2)cc(-c2ccc(N)cc2)[nH]c1=O	SK-MEL-5 melanoma	> 100 µM

----------
tested on: NCI-H460 lung
Labels: active, inactive

COMPOUND	ASSAY_SYSTEM	CATEGORY
N#CC(C#N)=C1CCCOc2c1ccc1ccccc21	NCI-H460 lung	inactive
Clc1nc(Cl)c2ncn(Cc3ccccc3Cn3cnc4c(Cl)nc(Cl)nc43)c2n1	NCI-H460 lung	inactive
C=C1C(O)C2C(=C(C)C13CC3)C(=O)C(C)(C)C2OC (centres undefined)	NCI-H460 lung	inactive
CCC[CH2][Sn]1([CH2]CCC)[O]CC(COc2c(Cl)cc(Cl)cc2Cl)[O]1 (centres undefined)	NCI-H460 lung	inactive
C=CCn1c(SCC(=O)Nc2ccc(C(=O)/C=C/c3cc(OC)c(OC)c(OC)c3)cc2)nnc1-c1ccc(OC)cc1	NCI-H460 lung	inactive
O=C(Nc1ccc(Cl)cc1)Nc1nccs1	NCI-H460 lung	inactive
O=C(N/N=C/c1ccc(O)cc1O)c1cccnc1	NCI-H460 lung	inactive
Cc1sc2c(c1C)C(c1ccc(Cl)cc1)=N[C@@H](CC(=O)Nc1ccc(OCCOCCOCCOCCNc3cccc4c3C(=O)N(C3CCC(=O)NC3=O)C4=O)cc1)c1nnc(C)n1-2 (some centres undefined)	NCI-H460 lung	inactive
NCCN.O=C([O-])[O-].O=C([O-])[O-].[Co+3].[K+]	NCI-H460 lung	inactive
O=C(N[C@@H](Cc1coc2ccccc12)B(O)O)[C@@H]1C[C@H]2CC[C@@H]1O2	NCI-H460 lung	inactive
COc1ccc(-c2cc(Nc3ccnc(N4CCOCC4)n3)on2)cc1	NCI-H460 lung	active
CCOC(=O)c1sc(NC(=O)COc2cccc(/C=C3\CCc4cc(OC)ccc4C3=O)c2)nc1C	NCI-H460 lung	inactive
O=C(CCN1CCOCC1)Nc1cccc(-n2cc(-c3ccncc3)c(-c3ccc(Cl)c(O)c3)n2)c1	NCI-H460 lung	inactive
COc1cc2c3c(n(CCCN(CCO)CCO)c(=O)c2cc1OC)-c1cc2c(cc1C3=O)OCO2	NCI-H460 lung	active

----------
tested on: HCT-15 colon; experiment: NCI tumour cell line growth inhibition, 48 h
ASSAY_ENDPOINT: TGI

COMPOUND	RESULT
CC(=O)c1c(N=[N+]=[N-])c2cccc3c2n(c1=O)CCC3	47.4 µM
C[P+](C)(C)c1ccccc1	> 100 µM
C/C(=N\NC(=S)N1CCCC1)c1nc2ncccc2[nH]1	> 100 µM
O=C1c2ccc3c4ccccc4n(-c4ccccc4)c3c2C(=O)N1c1ccc(Cl)cc1	> 100 µM
Cc1ccc2c(c1)CC1(Cc3cccc(C)c3C1=O)C2=O (centres undefined)	> 100 µM
COc1cc(Nc2nc3cc(C(F)(F)F)ccc3nc2C(=O)O)cc(OC)c1OC	> 100 µM
O=c1cc(NNc2cccc(Cl)c2)[nH]c(=O)[nH]1	31.4 µM
Oc1ccc(/C=C/c2cc(O)cc3c2C(c2cc(O)cc(O)c2)C(c2ccc(O)c(O)c2)O3)cc1 (centres undefined)	45.4 µM
Nc1nc(SCc2ccccc2Cl)c2[nH]cnc2n1	> 100 µM
CCCCCCc1cc2cc(C(=O)Nc3ccc(F)cc3)c(=N)oc2cc1O	7.62 µM
O=C1c2ccccc2C(=O)N1C/C=N/NS(=O)(=O)c1ccc(Br)cc1	> 100 µM
CCC(=O)OCN(C)c1nc(N(C)COC(=O)CC)nc(N(C)COC(=O)CC)n1	56 µM
COc1cc2c3c(n(CCCN(C)CCO)c(=O)c2cc1OC)-c1cc2c(cc1C3=O)OCO2	> 100 µM
Cc1n[n+](Cc2ccccc2)c2sc(N)nn12	> 100 µM
O=C(NNc1cnccn1)c1nc2cc(F)ccc2n2cccc12	> 100 µM
C=CCCC1(C)CCCNC1=S (centres undefined)	> 100 µM
CC1CCC(C(C)(C)c2ccccc2)C(=O)C1 (centres undefined)	> 100 µM
CN(C)CCNC(=O)c1cccc2[nH]c(-c3ccccn3)nc12	> 100 µM
CC(=O)O[C@@]12CO[C@@H]1CC(O)[C@@]1(C)C(=O)[C@H](O)C3=C(C)C(O)C[C@@](O)(C(OC(=O)c4ccccc4)C12)C3(C)C (some centres undefined)	> 100 µM
OC(C/C=N/N=C/CC(O)(C(F)(F)Cl)C(F)(F)Cl)(C(F)(F)Cl)C(F)(F)Cl	> 10 µM
COc1cc(OC)c2sc(-c3ccc(-n4cncc4-c4cc(OC)c(OC)c(OC)c4)cc3)nc2c1	> 100 µM
c1ccc2c(c1)OCCOCCOc1ccccc1OCCO2	> 100 µM
CCCCCCCCCCCCCCCCCCC1=C(O)C(=O)C=C(OC)C1=O	97.5 µM
COc1ccc(-c2nn(-c3cccc(Cl)c3)cc2-c2nc(N)[nH]c(=O)c2C#N)cc1	> 100 µM
NCCCOc1cc(Cl)ccc1NC(=O)c1cc2ccccc2cc1OCCCN	3.2 µM
O=C1CCSCCC(=O)Nc2ccccc2N1	> 100 µM
CNC(C)C(O)c1ccc2oc3cc(=O)c4ccccc4c-3nc2c1 (centres undefined)	> 100 µM
O=C(Nc1ccc(Cl)cc1)Nc1nccs1	> 100 µM
CCOC(=O)CCC1(CCC(=O)OCC)CCCCCCCCC(CCC(=O)OCC)(CCC(=O)OCC)C(=O)C1=O	> 100 µM
Cn1cc(-c2csc(-c3cn(C)c4ccc(F)cc34)n2)c2cnccc21	3.27 µM
NC(N)=N/N=C(\N=Nc1ccccc1)c1ccc(Cl)cc1	14.9 µM
Cc1cc(C)nc(NC(P(=O)(O)O)P(=O)(O)O)n1	> 100 µM
CCOC(=O)C(Cc1ccc(O)cc1)Nc1nc(=O)c2c(=O)oc(Cl)cc2o1 (centres undefined)	37.3 µM
O=C1C2[C@@H](C(=O)N1c1ccc(Br)cc1)C13C(=CC2([N+](=O)[O-])[C@@H]2C(=O)N(c4ccc(Br)cc4)C(=O)[C@@H]21)c1ccccc1N3c1ccccc1 (some centres undefined)	> 100 µM

Where do the numbers come from? From PubChem BioAssay (NCI).
